test: activity coefficient (dimensionless); of the first substance listed, at infinite dilution; xn = mol fraction of the nth substance listed; conditions: 348.15 K; 101.33 kPa; Liquid; Chromatography; x1 = 0
readout.name: activity coefficient
Hey, just send me the number, nothing else.

// solved cases for activity coefficient follow
Can you share its activity coefficient? I mean this compound: CC(C)OC(C)C [diisopropyl ether] + CC[N+](C)(CC)CCOC.O=S(=O)([N-]S(=O)(=O)C(F)(F)F)C(F)(F)F
6.03

// repeat for C=Cc1ccccc1 [styrene] + CC[N+](C)(CC)CCOC.O=S(=O)([N-]S(=O)(=O)C(F)(F)F)C(F)(F)F and report
1.34

And what about the compound CCC[N+](=O)[O-] [1-nitropropane] + CC[N+](C)(CC)CCOC.O=S(=O)([N-]S(=O)(=O)C(F)(F)F)C(F)(F)F ?
0.772

Also, C=CCCCC [hex-1-ene] + CC[N+](C)(CC)CCOC.O=S(=O)([N-]S(=O)(=O)C(F)(F)F)C(F)(F)F please.
8.07

Then what about the compound COC(C)(C)C [2-methoxy-2-methylpropane] + CC[N+](C)(CC)CCOC.O=S(=O)([N-]S(=O)(=O)C(F)(F)F)C(F)(F)F ?
2.67

Now give it for CCCC(C)=O [pentan-2-one] + CC[N+](C)(CC)CCOC.O=S(=O)([N-]S(=O)(=O)C(F)(F)F)C(F)(F)F too.
0.884

Next:
# activity coefficient lookup, item CCc1ccccc1 [ethylbenzene] + CC[N+](C)(CC)CCOC.O=S(=O)([N-]S(=O)(=O)C(F)(F)F)C(F)(F)F
2.28

Same for CCCCCCC [heptane] + CC[N+](C)(CC)CCOC.O=S(=O)([N-]S(=O)(=O)C(F)(F)F)C(F)(F)F
21

Similarly, CCO [ethanol] + CC[N+](C)(CC)CCOC.O=S(=O)([N-]S(=O)(=O)C(F)(F)F)C(F)(F)F ?
1.38

###

Each entry below carries its reported activity coefficient.
assay: activity coefficient (dimensionless); of the first substance listed, at infinite dilution; xn = mol fraction of the nth substance listed; conditions: 358.15 K; 101.33 kPa; Liquid; Chromatography; x1 = 0
The response must contain the number and no unit.

Observe how each entry below is paired with its result.
Would you kindly share the measured activity coefficient for C#CCCC [1-pentyne] + CC[N+](C)(CC)CCOC.O=S(=O)([N-]S(=O)(=O)C(F)(F)F)C(F)(F)F ?
2.21

One more compound: CCCC(C)=O [pentan-2-one] + CC[N+](C)(CC)CCOC.O=S(=O)([N-]S(=O)(=O)C(F)(F)F)C(F)(F)F
0.896

What do you get for c1ccsc1 [thiophene] + CC[N+](C)(CC)CCOC.O=S(=O)([N-]S(=O)(=O)C(F)(F)F)C(F)(F)F ?
0.94

Below: the item to evaluate.
Field request: activity coefficient | item: CCC(=O)CC [pentan-3-one] + CC[N+](C)(CC)CCOC.O=S(=O)([N-]S(=O)(=O)C(F)(F)F)C(F)(F)F
0.916

###

assay: activity coefficient (dimensionless); of the first substance listed, at infinite dilution; xn = mol fraction of the nth substance listed; details: 318.15 K; 101.33 kPa; Liquid; Chromatography; x1 = 0
So basically: activity coefficient at 2 or higher? That is y. Lower than 2? That is n.

Examples from the recorded data:
Answer whether activity coefficient of COC(C)(C)C [2-methoxy-2-methylpropane] + CC[N+](C)(CC)CCOC.O=S(=O)([N-]S(=O)(=O)C(F)(F)F)C(F)(F)F is greater than or equal to 2.
y

Also check CCCO [propan-1-ol] + CC[N+](C)(CC)CCOC.O=S(=O)([N-]S(=O)(=O)C(F)(F)F)C(F)(F)F
y

Same read-out for C#CCCC [1-pentyne] + CC[N+](C)(CC)CCOC.O=S(=O)([N-]S(=O)(=O)C(F)(F)F)C(F)(F)F ?
y

Okay, and CO [methanol] + CC[N+](C)(CC)CCOC.O=S(=O)([N-]S(=O)(=O)C(F)(F)F)C(F)(F)F ?
n

Request: CCc1ccccc1 [ethylbenzene] + CC[N+](C)(CC)CCOC.O=S(=O)([N-]S(=O)(=O)C(F)(F)F)C(F)(F)F
y

Same thing, different molecule: C=Cc1ccccc1 [styrene] + CC[N+](C)(CC)CCOC.O=S(=O)([N-]S(=O)(=O)C(F)(F)F)C(F)(F)F
n

Here's the next entry for you.
Does activity coefficient meet or surpass 2 for C=CCCCC [hex-1-ene] + CC[N+](C)(CC)CCOC.O=S(=O)([N-]S(=O)(=O)C(F)(F)F)C(F)(F)F ?
y
